Data origin: the MegaScale stability set (Tsuboyama et al. 2023)

B1: HEEH_KT_rd6_0007 (parent)
chain: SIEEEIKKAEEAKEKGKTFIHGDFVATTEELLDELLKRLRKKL

Variants of: B1
Test: folding stability dG (cDNA display proteolysis); higher = more stable
Conditions: PBS, room temperature
Mark Fulfilled for reported folding stability dG of 1 kcal/mol or greater; mark Not fulfilled for anything smaller.

MUTATION LIST	QUALITATIVE LABEL
G16H	Fulfilled
L43S	Not fulfilled
R40M	Not fulfilled
K15V	Not fulfilled
G16N	Fulfilled
H21A	Not fulfilled
K17P	Not fulfilled
E29P	Fulfilled
E14V	Fulfilled
I6V	Not fulfilled
